Source of measurements: ChEMBL document CHEMBL4354862

Biological target: UniProt P25779
Test: Inhibition of Trypanosoma cruzi cruzain assessed as rate constant for enzyme-inhibitor complex using Cbz-Phe-Arg-AMC as substrate and measured up to 40 mins by fluorescence assay
Conditions: read-out: Ki(app)
Property: Ki; scope: individual compounds
observable: Ki

1) CN1CCN(C(=O)N[C@@H](Cc2ccccc2)C(=O)N[C@H](/C=C/c2ncccn2)CCc2ccccc2)CC1; > 10 µM
2) COc1ccnc(/C=C/[C@H](CCc2ccccc2)NC(=O)[C@H](Cc2ccccc2)NC(=O)OCc2ccccc2)c1; > 5 µM
3) C[n+]1ccccc1/C=C/[C@H](CCc1ccccc1)NC(=O)[C@H](Cc1ccccc1)NC(=O)OCc1ccccc1; 0.76 µM
4) O=C(N[C@@H](Cc1ccccc1)C(=O)N[C@H](/C=C/c1ncccn1)CCc1ccccc1)OCc1ccccc1; > 35 µM

###

Test system: Trypanosoma cruzi
Assay: Antitrypanosomal activity against Trypanosoma cruzi Brazil epimastigotes measured after 48 hrs by [3H]thymidine incorporation based beta-counting method
Format: functional, organism-based
pEC50: −log10 of the molar value.
observable: pEC50

1. CN1CCN(C(=O)N[C@@H](Cc2ccccc2)C(=O)N[C@H](/C=C/S(=O)(=O)c2ccccc2)CCc2ccccc2)CC1; 4.22

###

Experiment: Selectivity index, ratio of CC50 for HDF cells to EC50 for Trypanosoma cruzi Ca-I/72 infected in mouse C2C12 cells
Type: toxicity, cell-based
Conditions: read-out: Ratio CC50/EC50
Property: selectivity ratio; scope: individual molecules
observable: selectivity ratio

1. C[n+]1ccccc1/C=C/[C@H](Cc1ccccc1)NC(=O)[C@H](Cc1ccccc1)NC(=O)OCc1ccccc1.[I-]; > 10
2. C[n+]1ccccc1/C=C/[C@H](CCc1ccccc1)NC(=O)[C@H](Cc1ccccc1)NC(=O)OCc1ccccc1; > 20

###

Assay: Solubility of the compound in 10% DMSO v/v at 1 to 200 uM measured up to 120 mins
Format: physicochemical
Details: 2 h
observable: solubility

1. C[n+]1ccccc1/C=C/[C@H](CCc1ccccc1)NC(=O)[C@H](Cc1ccccc1)NC(=O)OCc1ccccc1; >= 50 uM
2. C[n+]1ccccc1/C=C/[C@H](Cc1ccccc1)NC(=O)[C@H](Cc1ccccc1)NC(=O)OCc1ccccc1.[I-]; >= 50 uM
3. O=C(N[C@@H](Cc1ccccc1)C(=O)N[C@H](/C=C/c1ccccc1)Cc1ccccc1)OCc1ccccc1; <= 2 uM
4. O=C(N[C@@H](Cc1ccccc1)C(=O)N[C@H](/C=C/c1ccc([N+](=O)[O-])cc1)Cc1ccccc1)OCc1ccccc1; <= 2 uM

###

Molecular target: Cruzipain (Trypanosoma cruzi)
Sequence (P25779 whole entry): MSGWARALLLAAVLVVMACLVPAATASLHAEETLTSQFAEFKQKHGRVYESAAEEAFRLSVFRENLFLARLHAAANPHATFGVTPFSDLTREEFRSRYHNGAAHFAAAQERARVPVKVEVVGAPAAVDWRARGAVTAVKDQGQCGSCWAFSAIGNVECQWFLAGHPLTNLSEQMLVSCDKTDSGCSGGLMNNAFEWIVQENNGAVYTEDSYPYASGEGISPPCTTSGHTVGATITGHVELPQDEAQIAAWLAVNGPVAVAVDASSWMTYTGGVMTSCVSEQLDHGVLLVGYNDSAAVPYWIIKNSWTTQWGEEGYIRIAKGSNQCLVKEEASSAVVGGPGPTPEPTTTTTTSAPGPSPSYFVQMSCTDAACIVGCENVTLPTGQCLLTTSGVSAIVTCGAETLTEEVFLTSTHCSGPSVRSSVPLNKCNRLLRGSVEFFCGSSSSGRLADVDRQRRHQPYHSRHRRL
Test: Inhibition of Trypanosoma cruzi cruzain using Cbz-Phe-Arg-AMC as substrate and measured up to 40 mins by fluorescence assay
pKi: −log10 of the molar value.
observable: pKi

1. C[n+]1ccccc1/C=C/[C@H](CCc1ccccc1)NC(=O)[C@H](Cc1ccccc1)NC(=O)OCc1ccccc1; 5.37 to 5.70

###

Property: pEC50; scope: individual compounds
Tested on: Trypanosoma brucei brucei
Assay: Antitrypanosomal activity against Trypanosoma brucei brucei ATCC PRA-383 bloodstream forms supplemented with fresh medium containing compound daily for 4 days by coulter counting method
Settings: ATCC PRA-383, 96 h
pEC50: −log10 of the molar value.
observable: pEC50

1) CN1CCN(C(=O)N[C@@H](Cc2ccccc2)C(=O)N[C@H](/C=C/S(=O)(=O)c2ccccc2)CCc2ccccc2)CC1; 7.05
2) C[n+]1ccccc1/C=C/[C@H](Cc1ccccc1)NC(=O)[C@H](Cc1ccccc1)NC(=O)OCc1ccccc1.[I-]; 5.18
3) C[n+]1ccccc1/C=C/[C@H](CCc1ccccc1)NC(=O)[C@H](Cc1ccccc1)NC(=O)OCc1ccccc1; 5.55
4) O=C(N[C@@H](Cc1ccccc1)C(=O)N[C@H](/C=C/c1ccccn1)CCc1ccccc1)OCc1ccccc1; 5.40
